# test.system: Transient receptor potential cation channel subfamily V member 1 (Rattus norvegicus, UniProt O35433)
# Sequence (O35433 whole entry): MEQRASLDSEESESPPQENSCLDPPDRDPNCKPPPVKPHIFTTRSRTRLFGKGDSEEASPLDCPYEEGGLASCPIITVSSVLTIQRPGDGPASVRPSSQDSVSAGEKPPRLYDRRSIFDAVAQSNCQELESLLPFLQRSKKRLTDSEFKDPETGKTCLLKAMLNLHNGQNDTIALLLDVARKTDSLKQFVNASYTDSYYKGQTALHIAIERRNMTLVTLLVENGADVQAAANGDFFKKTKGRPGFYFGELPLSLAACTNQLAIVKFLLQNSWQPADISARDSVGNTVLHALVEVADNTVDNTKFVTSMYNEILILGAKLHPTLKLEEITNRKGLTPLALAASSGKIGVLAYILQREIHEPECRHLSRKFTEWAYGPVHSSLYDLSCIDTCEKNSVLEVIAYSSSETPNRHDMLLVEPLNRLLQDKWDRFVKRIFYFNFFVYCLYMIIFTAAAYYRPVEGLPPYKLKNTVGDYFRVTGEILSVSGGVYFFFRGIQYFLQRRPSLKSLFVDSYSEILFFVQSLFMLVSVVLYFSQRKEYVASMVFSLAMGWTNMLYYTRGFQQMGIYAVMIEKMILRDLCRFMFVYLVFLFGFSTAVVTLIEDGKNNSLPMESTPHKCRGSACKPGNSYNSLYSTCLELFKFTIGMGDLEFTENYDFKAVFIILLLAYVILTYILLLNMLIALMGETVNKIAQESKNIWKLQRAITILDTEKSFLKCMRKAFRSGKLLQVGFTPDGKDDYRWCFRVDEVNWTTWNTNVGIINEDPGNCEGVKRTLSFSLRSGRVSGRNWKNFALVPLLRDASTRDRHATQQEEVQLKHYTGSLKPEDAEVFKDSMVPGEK
# experimental.protocol: Antagonist activity against acid-induced 45calcium ion uptake in CHO cells expressing rat TRPV1 at pH5
# Assay type: functional, cell-based

compound	modifier.sign	IC50 / nM
C[C@@H]1CN(c2ncc(CO)cc2Cl)CCN1c1nc2c(N(Cc3ccccc3)Cc3ccccc3)cc(C(F)(F)F)cc2[nH]1	=	0.9
FC(F)(F)c1ccc(N2CCN(c3nc4cc(C(F)(F)F)ccc4[nH]3)CC2)nc1	>	40000
C[C@@H]1CN(c2ncc(C(O)CO)cc2Cl)CCN1c1nc2c(-c3cc(F)c(F)c(F)c3)cc(C(F)(F)F)cc2[nH]1 (mixture of isomers)	=	0.9
FC(F)(F)c1cc(-c2cccs2)c2[nH]c(N3CCN(c4ncccc4C(F)(F)F)CC3)nc2c1	=	221
Nc1ccc(-c2cc(C(F)(F)F)cc3[nH]c(N4CCN(c5ncccc5C(F)(F)F)CC4)nc23)cc1	=	308
FC(F)(F)c1cc(/C=C/c2ccccc2)c2[nH]c(N3CCN(c4ncccc4C(F)(F)F)CC3)nc2c1	=	140
Cc1cccnc1N1CCN(c2nc3ccc(C(F)(F)F)cc3[nH]2)CC1	=	1140
CC(C)(C)c1ccc(-c2cc(C(F)(F)F)cc3[nH]c(N4CCN(c5ncccc5C(F)(F)F)CC4)nc23)cc1	=	4
